- target: hYBX2 CSD I92T/Q93K (called wild-type in ITC) (human, UniProt Q9Y2T7 85-177, I92T;Q93K)
- Sequence (Q9Y2T7 85-177 I92T/Q93K): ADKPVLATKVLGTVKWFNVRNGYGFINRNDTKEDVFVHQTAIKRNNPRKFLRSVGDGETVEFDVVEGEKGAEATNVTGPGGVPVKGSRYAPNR
- assay: ITC; ITC: 25 C, iTC200, buffer not stated (protein stock 10 mM Tris-HCl pH 8.0, 100 mM NaCl, 1 mM DTT); EMSA: 50 mM Tris-HCl pH 7.5, 100 mM NaCl, 0.4 mM EDTA, 0.1% NP-40, 1 mM DTT, 50% glycerol, BSA, on ice, 0.2% glutaraldehyde; pull-down: 100 mM NaCl, 10 mM Tris-HCl pH 7.6, 2 mM EDTA, 0.5% NP-40, 4 C
- test-settings: protein: recombinant; tags: His6-SUMO removed by Ulp1
Listed here are binders together with their documented Kd.
Entry rule: numbers only, all in nM.

                                     binder  readout_units  observed
0  UCAUCUCU (ssRNA, m5C at position 5) [ITC m5C RNA UCAU(m5C)UCU]             nM       220

Give its Kd value. Item: UCAUCUCU (ssRNA) [ITC unme-C RNA]
710
